System: M14 melanoma
protocol description: NCI-60 one-dose screen, 48 h
test conditions: 10 µM unless noted
The panel holds about 83,000 compounds, 20% with a hit somewhere; the sample as a whole holds those more often. Calls of active or inactive are those of the source. How the source made its calls: active means growth percent below 10; inactive means the rest.
Pick from yes (active), no (inactive) when you respond.

                                   compound  label_value
0  CCCCCCCCCCCCCCCCCCNC(=O)[C@H]1CSC(c2ccc(OC)c(F)c2)N1 (stereo partly specified)          yes
1                O=C1C=CC(=O)c2c1nc1n2CCCC1           no
2    CC[C@@H](C)OC(=O)c1nn(C(C)=O)c2ccccc12           no
3     Oc1cc(O)c2c(=S)cc(-c3ccc(Cl)cc3)oc2c1           no
4  Cc1cc(Cl)ccc1Nc1nc(C(F)(F)F)ccc1C(=O)N/N=C/c1ccc(F)cc1          yes

# evaluate next
[ask] Write down the call the test reported for this compound. Item: O=C1CC(c2nc3ccccc3[nH]2)CN1C1CCCCC1 (stereo unspecified)
[reply] no

====

Test system: OVCAR-4 ovarian
protocol description: NCI-60 one-dose screen, 48 h (100 = growth as untreated, 0 = no growth, -100 = all killed)
test conditions: 10 µM unless noted
Compounds without any hit were thinned out: in the full panel of roughly 83,000, 20% have a hit.
Label 1 (yes) when growth is strictly below 60%; otherwise label 0 (no).

Reference set, count: 10
In [3]: df
Out[3]:
                                   molecule  label_value
0  CNCCCn1c2c(c3ccc([N+](=O)[O-])cc3c1=O)C(=O)c1cc(OC)cnc1-2      1 (yes)
1  Cc1ccc(S(=O)(=O)N(CCc2ccc(Cl)cc2)S(=O)(=O)c2ccc(C)cc2)cc1       0 (no)
2  CCN(CC)c1ccc(/C=C/C2=[N+](C)c3ccccc3C2(C)C)cc1      1 (yes)
3    Cc1cc(Nc2nc(N3CCOCC3)nc3ccccc23)n[nH]1      1 (yes)
4              c1ccc(CSc2ncnc3nc[nH]c23)nc1       0 (no)
5  O=C(Nc1ccc(Nc2cc(Nc3ccccc3)ncn2)cc1)Nc1cc(C(F)(F)F)ccc1F       0 (no)
6          COc1ccc(/C=N\NC(=O)c2ccncc2)cc1O       0 (no)
7          NC(=S)N/N=C/c1ccc(OCc2ccccc2)cc1      1 (yes)
8                    Nc1ccc2c(c1)C(=O)NC2=O       0 (no)
9  CC(C)(C)n1cc(-c2ccnc(NCCCNS(=O)(=O)c3cccc4ccccc34)c2)c(-c2cccc(O)c2)n1      1 (yes)

[ask] I'd appreciate it if you could check whether COC(=S)SCN(CSC(=S)OC)c1ccc(Cl)cc1 has growth smaller than 60%.
[reply] 0 (no)

[ask] Could you please tell me whether growth recorded for C=CC[N+]1(CC)CCN=C1CCCCCCCCCCCCCCCCC (configuration not stated) is less than 60%?
[reply] 1 (yes)

[ask] # check: growth < 60% for Cc1ccc(Nc2nc(N)nc(Nc3ccc4ccccc4c3)n2)cc1
[reply] 0 (no)

[ask] Please determine if O=C1C=CC(=O)c2c1nc1n2CCCC1 is below 60% in terms of growth.
[reply] 0 (no)

[ask] Determine whether this molecule shows growth lower than 60% (ties excluded): CC(=O)N1CC(Nc2ccc(OC(F)(F)F)cc2)=CC1=O
[reply] 0 (no)

[ask] Threshold test, growth < 60%: O=[N+]([O-])c1cccc(-c2nc3sccn3c2-c2ccnc(NCCCNS(=O)(=O)c3ccc(F)cc3)n2)c1
[reply] 1 (yes)

[ask] I'd appreciate it if you could check whether O=C1C[C@H](N2C(=O)c3ccccc3S2(=O)=O)C2CO[C@@H]1O2 has growth smaller than 60%.
[reply] 0 (no)

[ask] Is growth strictly under 60% for the entry O=C(NC(Cc1ccccc1)C(=O)CCl)OCc1ccccc1 (configuration not stated) ?
[reply] 0 (no)

[ask] Determine whether this molecule shows growth lower than 60% (ties excluded): CC/C(=C(\c1ccc(O)cc1)c1ccc(OCCN(C)CCN(C)C(=O)CCCCC(=O)c2c(C)[nH]c(/C=C3\N=C(c4ccc[nH]4)C=C3OC)c2C)cc1)c1ccccc1
[reply] 0 (no)

[ask] Does the reported growth of Oc1ccc2c(=S)cc(-c3ccc(Br)cc3)oc2c1O stay below 60%?
[reply] 1 (yes)

[ask] Please determine if CCN(C(=O)CN1CCN(c2cc3c(cc2F)c(=O)c(C(=O)O)cn3CC)CC1)c1nc(-c2ccccc2)cs1 is below 60% in terms of growth.
[reply] 1 (yes)

[ask] Input CC(=O)/C(=C/c1cccc(Cl)c1)C(=O)c1ccccc1 ; condition: growth strictly below 60%. Does it hold?
[reply] 0 (no)
